Data origin, for the record: paper PMC8297402

# Procedure Details: Modified MTT cytotoxicity assay, normal heptical cell line HHL-5
# Test Settings: human, HHL-5 cells (normal hepatic cell line)
IC50 by entry:
# unit: µM | format: bare number

{"columns": ["Chemical Structure", "Observed Property", "Result Value"],
 "data": [
  ["O=C1/C(=C/c2cccc(C(F)(F)F)c2)CN(S(=O)(=O)c2ccc(Cl)cc2)C/C1=C\\c1cccc(C(F)(F)F)c1", "IC50", 2.2],
  ["O=C1/C(=C/c2ccccc2C(F)(F)F)CN(S(=O)(=O)c2ccc(Br)cc2)C/C1=C\\c1ccccc1C(F)(F)F", "IC50", 14.5]
]}

Continue with the molecule presented below.
Request: For the molecule `O=C1/C(=C/c2ccccc2C(F)(F)F)CN(S(=O)(=O)c2ccc(F)cc2)C/C1=C\c1ccccc1C(F)(F)F` , what IC50 is on record?
Response: 11.8

----------
# Tested on: A549
# Procedure Details: Modified MTT cytotoxicity assay, A549
# Test Settings: read-out: Cytotoxicity IC50 A549; MTT, non-small cell lung cancer cell line
So basically: is IC50 under 200 nM? Then class 1. Not under? Then class 0.

Request: Please state whether IC50 is below 200 nM for CC(=O)Nc1ccc(S(=O)(=O)N2C/C(=C\c3ccccc3C(F)(F)F)C(=O)/C(=C/c3ccccc3C(F)(F)F)C2)cc1 [BAP 12]
Response: class 0

Request: Can you handle Cc1ccc(S(=O)(=O)N2C/C(=C\c3ccc(C(F)(F)F)cc3)C(=O)/C(=C/c3ccc(C(F)(F)F)cc3)C2)cc1 [BAP 23] next?
Response: class 1

Request: Can you handle CC(=O)Nc1ccc(S(=O)(=O)N2C/C(=C\c3ccc(C(F)(F)F)cc3)C(=O)/C(=C/c3ccc(C(F)(F)F)cc3)C2)cc1 [BAP 30] next?
Response: class 1

Request: Can you handle O=C1/C(=C/c2ccccc2C(F)(F)F)CN(S(=O)(=O)c2ccccc2)C/C1=C\c1ccccc1C(F)(F)F [BAP 4] next?
Response: class 0

Request: Can you handle O=C1/C(=C/c2ccccc2C(F)(F)F)CN(S(=O)(=O)c2ccc(C(F)(F)F)cc2)C/C1=C\c1ccccc1C(F)(F)F [BAP 7] next?
Response: class 0

Request: Can you handle O=C1/C(=C/c2ccc(C(F)(F)F)cc2)CN(S(=O)(=O)c2ccc(F)cc2)C/C1=C\c1ccc(C(F)(F)F)cc1 [BAP 26] next?
Response: class 1

----------
# System: HHL-5
# Procedure Details: Modified MTT cytotoxicity assay, normal heptical cell line HHL-5
# Test Settings: read-out: Cytotoxicity IC50 HHL-5; MTT, normal heptical cell line
Observed Property: pIC50
Scale: pIC50 equals -log10([C]), with [C] in mol/L.

Previously resolved entries follow.
{"columns": ["Chemical Structure", "Observed Property", "Result Value"],
 "data": [
  ["CC(=O)Nc1ccc(S(=O)(=O)N2C/C(=C\\c3cccc(C(F)(F)F)c3)C(=O)/C(=C/c3cccc(C(F)(F)F)c3)C2)cc1", "pIC50", 5.52],
  ["CC(=O)Nc1ccc(S(=O)(=O)N2C/C(=C\\c3ccccc3C(F)(F)F)C(=O)/C(=C/c3ccccc3C(F)(F)F)C2)cc1", "pIC50", 5.10],
  ["O=C1/C(=C/c2ccccc2C(F)(F)F)CN(S(=O)(=O)c2ccc(C(F)(F)F)cc2)C/C1=C\\c1ccccc1C(F)(F)F", "pIC50", 5.04],
  ["Cc1ccc(S(=O)(=O)N2C/C(=C\\c3ccc(C(F)(F)F)cc3)C(=O)/C(=C/c3ccc(C(F)(F)F)cc3)C2)cc1", "pIC50", 5.46],
  ["N#Cc1ccc(S(=O)(=O)N2C/C(=C\\c3ccc(C(F)(F)F)cc3)C(=O)/C(=C/c3ccc(C(F)(F)F)cc3)C2)cc1", "pIC50", 4.78],
  ["CC(=O)Nc1ccc(S(=O)(=O)N2C/C(=C\\c3ccc(C(F)(F)F)cc3)C(=O)/C(=C/c3ccc(C(F)(F)F)cc3)C2)cc1", "pIC50", 5.68],
  ["O=C1/C(=C/c2ccc(C(F)(F)F)cc2)CN(S(=O)(=O)c2ccc([N+](=O)[O-])cc2)C/C1=C\\c1ccc(C(F)(F)F)cc1", "pIC50", 5.12]
]}

Continue with the molecule presented below.
Request: Recorded pIC50 for `O=C1/C(=C/c2ccc(C(F)(F)F)cc2)CN(S(=O)(=O)c2ccc(C(F)(F)F)cc2)C/C1=C\c1ccc(C(F)(F)F)cc1` with HHL-5, please?
Response: 4.95

----------
# Procedure Details: Modified MTT cytotoxicity assay, normal heptical cell line LO2
# Type: cell-based, human
# Test Settings: human, LO2 cells (normal hepatic cell line), 24 h incubation
Observed Property: IC50 at 24 h (µM)
# unit: µM | format: bare number

Previously resolved entries follow.
{"columns": ["Compound", "IC50 at 24 h / µM"],
 "data": [
  ["O=C1/C(=C/c2ccc(C(F)(F)F)cc2)CN(S(=O)(=O)c2ccccc2)C/C1=C\\c1ccc(C(F)(F)F)cc1", 18.2],
  ["O=C1/C(=C/c2ccc(C(F)(F)F)cc2)CN(S(=O)(=O)c2ccc(Br)cc2)C/C1=C\\c1ccc(C(F)(F)F)cc1", 14.2],
  ["O=C1/C(=C/c2cccc(C(F)(F)F)c2)CN(S(=O)(=O)c2ccccc2)C/C1=C\\c1cccc(C(F)(F)F)c1", 10.1],
  ["O=C1/C(=C/c2ccccc2C(F)(F)F)CN(S(=O)(=O)c2ccc([N+](=O)[O-])cc2)C/C1=C\\c1ccccc1C(F)(F)F", 15.7],
  ["COc1cccc2c1C(=O)c1c(O)c3c(c(O)c1C2=O)C[C@@](O)(C(=O)CO)C[C@@H]3O[C@H]1C[C@H](N)[C@H](O)[C@H](C)O1 [DOX, Doxorubicin, reference compound]", 8.9],
  ["Cc1ccc(S(=O)(=O)N2C/C(=C\\c3cccc(C(F)(F)F)c3)C(=O)/C(=C/c3cccc(C(F)(F)F)c3)C2)cc1", 15.9]
]}

Continue with the compound presented below.
Request: For the compound `O=C1/C(=C/c2cccc(C(F)(F)F)c2)CN(S(=O)(=O)c2ccc(Cl)cc2)C/C1=C\c1cccc(C(F)(F)F)c1` , what IC50 at 24 h is on record?
Response: 14.1

----------
# System: HepG2
# Procedure Details: Modified MTT cytotoxicity assay, HepG2
# Format: cell-based, Human
# Test Settings: average of HepG2 and SMMC-7721; read-out: Cytotoxicity against HCC cells, average
# Description: The HepG2, SMMC-7721, and LO2 cell lines were maintained at 37 °C, 5% humidified CO2, and 95% atmosphere. Dulbecco's Modified Eagle (DMEM) medium containing 10% foetal bovine serum (FBS) was used for culturing the HepG2 cell line; meanwhile, Roswell Park Memorial Institute (RPMI) 1640 medium containing 10% FBS was used for culturing other cell lines (SMMC-7721, LO2). […]
Observed Property: pIC50
Scale: pIC50 equals -log10([C]), with [C] in mol/L.

{"columns": ["Molecule", "Result Value"],
 "data": [
  ["N#Cc1ccc(S(=O)(=O)N2C/C(=C\\c3ccc(C(F)(F)F)cc3)C(=O)/C(=C/c3ccc(C(F)(F)F)cc3)C2)cc1 [BAP 29]", 5.82]
]}

Continue with the molecule presented below.
Request: Recorded pIC50 for O=C1/C(=C/c2ccc(C(F)(F)F)cc2)CN(S(=O)(=O)c2ccc(C(F)(F)F)cc2)C/C1=C\c1ccc(C(F)(F)F)cc1 [BAP 25] with HepG2, please?
Response: 5.96

----------
# Test system: SMMC-7721
# Procedure Details: Modified MTT cytotoxicity assay, SMMC-7721
# Type: cell-based, Human
# Test Settings: MTT, 24 h incubation, three replicates; listed as 7
Observed Property: pIC50
Scale: pIC50 equals -log10([C]), with [C] in mol/L.

Request: For the compound O=C1/C(=C/c2ccccc2C(F)(F)F)CN(S(=O)(=O)c2ccc(C(F)(F)F)cc2)C/C1=C\c1ccccc1C(F)(F)F [BAP 7] , what pIC50 is on record?
Response: 5.59

----------
# Procedure Details: in vitro
# Format: cell-based
# Test Settings: human, Cytotoxicity IC50 BEAS-2B
Observed Property: pIC50
Scale: pIC50 equals -log10([C]), with [C] in mol/L.

Request: For the compound O=C1C(=Cc2cccc(C(F)(F)F)c2)CN(S(=O)(=O)c2ccc(C(F)(F)F)cc2)CC1=Cc1cccc(C(F)(F)F)c1 [BAP 16] , what pIC50 is on record?
Response: 4.75

----------
melting point by entry:

Previously resolved entries follow.
{"columns": ["Molecule", "Observed Property", "Result Value"],
 "data": [
  ["O=C1/C(=C/c2ccccc2C(F)(F)F)CN(S(=O)(=O)c2ccc(Br)cc2)C/C1=C\\c1ccccc1C(F)(F)F [BAP 10]", "melting point", "197 to 199 °C"],
  ["O=C1/C(=C/c2cccc(C(F)(F)F)c2)CN(S(=O)(=O)c2ccccc2)C/C1=C\\c1cccc(C(F)(F)F)c1 [BAP 13]", "melting point", "151 to 153 °C"],
  ["O=C1/C(=C/c2ccc(C(F)(F)F)cc2)CN(S(=O)(=O)c2ccc(Cl)cc2)C/C1=C\\c1ccc(C(F)(F)F)cc1 [BAP 27]", "melting point", "220 to 222 °C"],
  ["O=C1/C(=C/c2cccc(C(F)(F)F)c2)CN(S(=O)(=O)c2ccc(Br)cc2)C/C1=C\\c1cccc(C(F)(F)F)c1 [BAP 19]", "melting point", "135 to 137 °C"],
  ["O=C1/C(=C/c2ccccc2C(F)(F)F)CN(S(=O)(=O)c2ccc([N+](=O)[O-])cc2)C/C1=C\\c1ccccc1C(F)(F)F [BAP 6]", "melting point", "204 to 206 °C"]
]}

Continue with the molecule presented below.
Request: For the molecule O=C1/C(=C/c2cccc(C(F)(F)F)c2)CN(S(=O)(=O)c2ccc([N+](=O)[O-])cc2)C/C1=C\c1cccc(C(F)(F)F)c1 [BAP 15] , what melting point is on record?
Response: 196 to 198 °C
